system_name: OATP1B1 (Homo sapiens)
Sequence (Q9Y6L6 whole entry): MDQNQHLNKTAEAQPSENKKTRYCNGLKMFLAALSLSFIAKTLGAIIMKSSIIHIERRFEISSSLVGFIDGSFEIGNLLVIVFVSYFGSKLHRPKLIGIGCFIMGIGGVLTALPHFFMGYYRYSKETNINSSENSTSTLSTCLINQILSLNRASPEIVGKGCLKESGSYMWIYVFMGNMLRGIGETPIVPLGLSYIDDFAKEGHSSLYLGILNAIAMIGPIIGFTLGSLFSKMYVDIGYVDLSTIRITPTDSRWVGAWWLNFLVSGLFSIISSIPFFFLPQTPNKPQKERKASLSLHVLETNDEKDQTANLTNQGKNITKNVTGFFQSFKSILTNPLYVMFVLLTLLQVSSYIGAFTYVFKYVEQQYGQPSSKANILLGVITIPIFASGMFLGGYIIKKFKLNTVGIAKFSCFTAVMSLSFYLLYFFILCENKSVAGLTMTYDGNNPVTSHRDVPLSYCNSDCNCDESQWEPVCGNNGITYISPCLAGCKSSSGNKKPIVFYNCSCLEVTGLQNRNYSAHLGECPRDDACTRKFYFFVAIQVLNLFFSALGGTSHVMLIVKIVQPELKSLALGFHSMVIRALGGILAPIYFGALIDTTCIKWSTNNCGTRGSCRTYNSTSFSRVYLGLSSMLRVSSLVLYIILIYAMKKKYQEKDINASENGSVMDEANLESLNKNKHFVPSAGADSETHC
protocol_details: Uptake into stable transfected OATP1B1 HEK 293 cells
Format: cell-based
condition_notes: 40 min incubation, relative to RC1 (Gd-EOB-DTPA)
Recorded Uptake into OATP1B1-HEK 293 cells values for a group of compounds are listed next.
assay_endpoint: Uptake into OATP1B1-HEK 293 cells

>  <compound>
CCOc1ccc(CC(CN(CCN(CC(=O)[O-])CC(=O)[O-])CC(=O)[O-])N(CC(=O)[O-])CC(=O)[O-])cc1.[Gd+3].[Na+].[Na+] (stereo not drawn) [RC1, gadoxetate disodium, reference compound]

>  <result>
100 % of RC1

$$$$
>  <compound>
CCOCCOCCOc1ccc(CC(C(=O)O)N2CCN(CC(=O)[O-])CCN(CC(=O)[O-])CCN(CC(=O)[O-])CC2)cc1.[Gd+3] (stereo not drawn)

>  <result>
324 % of RC1

$$$$
>  <compound>
CCOCCOCCOc1ccc(C[C@@H](C(=O)O)N2CCN(CC(=O)[O-])CCN(CC(=O)[O-])CCN(CC(=O)[O-])CC2)cc1.[Gd+3]

>  <result>
63 % of RC1

$$$$
>  <compound>
CCOCCOCCOc1cc(CC(C(=O)O)N2CCN(CC(=O)[O-])CCN(CC(=O)[O-])CCN(CC(=O)[O-])CC2)cc(OCCOCCOCC)c1.[Gd+3] (stereo not drawn)

>  <result>
59 % of RC1

$$$$
>  <compound>
O=C([O-])CN1CCN(C(Cc2ccc(OCC(F)(F)C(F)F)cc2)C(=O)O)CCN(CC(=O)[O-])CCN([C@@H](CO)C(=O)[O-])CC1.[Gd+3] (mixture of isomers)

>  <result>
367 % of RC1

$$$$
>  <compound>
CCOc1ccc(CCCC(C(=O)O)N2CCN(CC(=O)[O-])CCN(CC(=O)[O-])CCN(CC(=O)[O-])CC2)cc1.[Gd+3] (stereo not drawn)

>  <result>
294 % of RC1

$$$$
>  <compound>
CCCOc1ccc(CCC(C(=O)O)N2CCN(CC(=O)[O-])CCN(CC(=O)[O-])CCN(CC(=O)[O-])CC2)cc1.[Gd+3] (stereo not drawn)

>  <result>
229 % of RC1

$$$$
>  <compound>
CCCC(C(=O)[O-])N1CCN(CC(=O)[O-])CCN(C(Cc2ccc(OCC)cc2)C(=O)O)CCN(CC(=O)[O-])CC1.[Gd+3] (stereo not drawn) [Example 30]

>  <result>
169 % of RC1

$$$$
>  <compound>
CCOCCOc1ccc(CC(C(=O)O)N2CCN(CC(=O)[O-])CCN(C(CC)C(=O)[O-])CCN(CC(=O)[O-])CC2)cc1.[Gd+3] (single isomer, unassigned) [Example 8]

>  <result>
271 % of RC1

$$$$
>  <compound>
CCOCCOCCOc1ccc(CC(C(=O)O)N2CCN(CC(=O)[O-])CCN(C(CO)C(=O)[O-])CCN(CC(=O)[O-])CC2)cc1.[Gd+3] (stereo not drawn)

>  <result>
218 % of RC1

$$$$
>  <compound>
CCOCCOc1ccc(CC(C(=O)O)N2CCN(CC(=O)[O-])CCN(C(COC)C(=O)[O-])CCN(CC(=O)[O-])CC2)cc1.[Gd+3] (stereo not drawn)

>  <result>
137 % of RC1

$$$$
>  <compound>
COCC(C(=O)O)N1CCN(CC(=O)[O-])CCN(C(Cc2ccc(OCC(F)(F)C(F)F)cc2)C(=O)[O-])CCN(CC(=O)[O-])CC1.[Gd+3] (stereo not drawn)

>  <result>
492 % of RC1

$$$$
